# Target Entity: T1, Ala mutant of TA0096, SEQ ID NO: 43
# T1 peptide: EENMDDQWMQDEMEIGA
# Assay Protocol: ELISA, coated peptide

Binder: G6 (antibody, V domains shown, Chicken variable regions in a mouse chimeric antibody (IgG1); also called anti-PAD4 antibody G6) VH: AVTLDESGGGLQTPGGALSLVCKASGFTFSSYGMEWVRQAPGKGLEYVAAIRNDGSWTGYGAAVKGRATISRDDGQSTLRLQLNNLRAEDTATYYCAKTTGSSGGSIDAWGHGTEVIVS VL: ASTQPSSVSANLGETVKITCSGGGNYYYGWYQQKSPGSAPVTLIYANDKRPSNIPSRFSGSKSGSTGTLTITGVQAEDEAVYFCGTADTGKYVFGAGTTLTVL
OD 490/630 nm: 1.87
//
Binder: E9 (antibody, V domains shown, Chicken variable regions in a mouse chimeric antibody (IgG1); also called anti-PAD4 antibody E9) VH: AVTLDESGGGLQTPGGTLSLVCKGSGFTFSSYGMGWMRQAPGKGLEYVAAIRNDGSWTGYGSAVKGRATISRDNGQSTVRLQLNNLRAEDTATYYCAKTSGSSGGSVDAWGHGTEVIVS VL: ASTQPSSVSANLGGTVEITCSGGGRYYYGWYQQKSPGSAPVTVIYANDKRPSDIPSRFSGSKSGSTGTLTITGVQAEDEAVYFCGSAETSSYVFGAGTTLTVL
OD 490/630 nm: 1.88
//
Binder: A11 (antibody, V domains shown, Chicken variable regions in a mouse chimeric antibody (IgG1); also called anti-PAD4 antibody A11) VH: AVTLDESGGGLQTPGGALSLVCKASGFDFSSYGMGWMRQAPGKGLEYVAAIRNDGSWTGYGAAVKGHATISRDNGQSTVRLQLNNLRAEDTGTYYCAKTTGSRGGSIDAWGHGTEVIVS VL: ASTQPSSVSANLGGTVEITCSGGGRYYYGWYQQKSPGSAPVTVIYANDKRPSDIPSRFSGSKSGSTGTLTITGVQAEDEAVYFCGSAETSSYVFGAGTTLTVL
OD 490/630 nm: 1.92
